Origin of measurements: paper PMC2362044

# maps each entry to its pEC50
test system: human tumour cell lines; test: Light-induced toxicity (MTT) assays over a broad range of cell lines; type: cell-based; conditions: Homo sapiens, 16 J cm^−2, all cell lines of Table 1; read-out: EC50 values, range between the different cell lines
pEC50: −log10 of the molar value.

Query: Given F[B-]1(F)n2c(-c3ccccc3)cc(-c3ccccc3)c2N=C2C(c3ccccc3)=CC(c3ccccc3)=[N+]21 , report its pEC50 on human tumour cell lines.
Result: 4.66 to 6.59

Proceed to the following item.
Query: Jot down pEC50 (human tumour cell lines) of COc1ccc(C2=[N+]3C(=Nc4c(-c5ccccc5)c(Br)c(-c5ccc(OC)cc5)n4[B-]3(F)F)C(c3ccccc3)=C2Br)cc1 .
Result: 6.20 to 7.85

----------
test system: MRC5 cells; experiment: MTT cell viability assay under hypoxic conditions (1% oxygen); format: cell-based, human; settings: Homo sapiens; MRC5, hypoxia 1% oxygen, 8 J cm^−2; read-out: EC50 (M) (8 J cm^−2)
MEASURED_ATTRIBUTE: EC50 (M)
Respond numerically; units are M and should not be typed.

Query: Using known records, supply EC50 for COc1ccc(C2=[N+]3C(=Nc4c(-c5ccccc5)c(Br)c(-c5ccc(OC)cc5)n4[B-]3(F)F)C(c3ccccc3)=C2Br)cc1 [ADPM06]
Result: 7.1e-06

----------
tested on: A2780cp70 cells; assay: Colorimetric survival (MTT) assay after photo-irradiation, normoxia; format: cell-based; settings: Homo sapiens, A2780/CP70; A2780cp70, 3 h incubation, 0 J cm^−2; read-out: EC50 (M) (dark)
MEASURED_ATTRIBUTE: EC50

Query: Look up and report measured EC50 for this entry: F[B-]1(F)n2c(-c3ccccc3)cc(-c3ccccc3)c2N=C2C(c3ccccc3)=CC(c3ccccc3)=[N+]21
Result: > 0.0001 M

----------
Readings of EC50 for the listed compounds
tested on: MCF-7 cells; assay: Colorimetric survival (MTT) assay after photo-irradiation, normoxia; assay type: cell-based; conditions: Homo sapiens, MCF7; MCF-7, 3 h incubation, 16 J cm^−2; read-out: EC50 (M) (16 J cm^−2)
Form entry: value (M) — number only.

Query: // fetch EC50 given entry F[B-]1(F)n2c(-c3ccccc3)cc(-c3ccccc3)c2N=C2C(c3ccccc3)=CC(c3ccccc3)=[N+]21
Result: 1.9e-06

Please look at the following compound next.
Query: For the compound COc1ccc(C2=[N+]3C(=Nc4c(-c5ccccc5)c(Br)c(-c5ccc(OC)cc5)n4[B-]3(F)F)C(c3ccccc3)=C2Br)cc1 , report EC50.
Result: 7.5e-08

----------
test system: HeLa cells; assay: Colorimetric survival (MTT) assay after photo-irradiation, normoxia; format: cell-based; settings: Homo sapiens, normoxia 21% oxygen, 3 h incubation, 16 J cm^−2, read-out: EC50 (M) (16 J cm^−2)
MEASURED_ATTRIBUTE: EC50 (M)
Field: numeric (M). Do not append units.

Query: For F[B-]1(F)n2c(-c3ccccc3)cc(-c3ccccc3)c2N=C2C(c3ccccc3)=CC(c3ccccc3)=[N+]21 , write its EC50.
Result: 9.2e-07

Continuing:
Query: Report EC50 for COc1ccc(C2=[N+]3C(=Nc4c(-c5ccccc5)c(Br)c(-c5ccc(OC)cc5)n4[B-]3(F)F)C(c3ccccc3)=C2Br)cc1
Result: 4.1e-08

----------
tested on: T47-D cells; experiment: Colorimetric survival (MTT) assay after photo-irradiation, normoxia; format: cell-based; conditions: Homo sapiens, T47D, 3 h incubation, 8 J cm^−2, read-out: EC50 (M) (8 J cm^−2)
The reader will find reported EC50 values listed item by item below.
# output: bare number, implied unit M

Query: Find the measured EC50 of COc1ccc(C2=[N+]3C(=Nc4c(-c5ccccc5)c(Br)c(-c5ccc(OC)cc5)n4[B-]3(F)F)C(c3ccccc3)=C2Br)cc1 [ADPM06] and report it.
Result: 1.6e-06

Query: Give recorded EC50. F[B-]1(F)n2c(-c3ccccc3)cc(-c3ccccc3)c2N=C2C(c3ccccc3)=CC(c3ccccc3)=[N+]21 [ADPM01]
Result: 5.6e-06

----------
system: HT-1080 cells; test: Colorimetric survival (MTT) assay after photo-irradiation, normoxia; format: cell-based; settings: Homo sapiens; HT-1080, 3 h incubation, 16 J cm^−2; read-out: EC50 (M) (16 J cm^−2)
Recorded EC50 by entry
Give just the numeric value; M need not be written.

Query: Retrieve EC50 measured for F[B-]1(F)n2c(-c3ccccc3)cc(-c3ccccc3)c2N=C2C(c3ccccc3)=CC(c3ccccc3)=[N+]21 and print it.
Result: 2.2e-05

More entries:
Query: // fetch EC50 given entry COc1ccc(C2=[N+]3C(=Nc4c(-c5ccccc5)c(Br)c(-c5ccc(OC)cc5)n4[B-]3(F)F)C(c3ccccc3)=C2Br)cc1
Result: 3.7e-08

----------
system: HeLa cells; assay: Colorimetric survival (MTT) assay after photo-irradiation, normoxia; format: cell-based; details: Homo sapiens, normoxia 21% oxygen, 3 h incubation, 0 J cm^−2, read-out: EC50 (M) (dark)
MEASURED_ATTRIBUTE: EC50 (M)
Kindly answer with a numeric value in M, unit omitted.

Query: Quick one: give measured EC50 for F[B-]1(F)n2c(-c3ccccc3)cc(-c3ccccc3)c2N=C2C(c3ccccc3)=CC(c3ccccc3)=[N+]21
Result: 2.7e-05

----------
tested on: T47-D cells; assay: Colorimetric survival (MTT) assay after photo-irradiation, normoxia; format: cell-based; conditions: Homo sapiens, T47D, 3 h incubation, 0 J cm^−2, read-out: EC50 (M) (dark)
MEASURED_ATTRIBUTE: EC50

Query: Provide measured EC50 on T47-D cells for F[B-]1(F)n2c(-c3ccccc3)cc(-c3ccccc3)c2N=C2C(c3ccccc3)=CC(c3ccccc3)=[N+]21 [ADPM01] please.
Result: > 0.0001 M

----------
Catalogue of EC50 readings, one per entry.
Tested on: MDA-MB-231 cells
Assay: Colorimetric survival (MTT) assay after photo-irradiation, normoxia
Type: cell-based
Conditions: Homo sapiens; MDA-MB-231, 3 h incubation, 8 J cm^−2; read-out: EC50 (M) (8 J cm^−2)
Experimental: All cell lines unless otherwise stated were obtained from the American Type Culture Collection. […] Cells were seeded in 96-well flat-bottomed microtitre plates (5000 cells well^−1) and incubated at 37°C in a 5% CO2 incubator for 24 h. […] Following irradiation, the cells were incubated for a further 48 h before being assessed for cell viability by a standard MTT assay (Sigma). […] The dark toxicity of each compound was also assessed. […]
Use M as the unit, but write only the number.

Query: Could you please provide reported EC50 for COc1ccc(C2=[N+]3C(=Nc4c(-c5ccccc5)c(Br)c(-c5ccc(OC)cc5)n4[B-]3(F)F)C(c3ccccc3)=C2Br)cc1 ? Thanks!
Result: 1.4e-07

Further cases:
Query: Provide measured EC50 value, entry: F[B-]1(F)n2c(-c3ccccc3)cc(-c3ccccc3)c2N=C2C(c3ccccc3)=CC(c3ccccc3)=[N+]21
Result: 5.6e-06

----------
system: MRC5 cells; assay: MTT cell viability assay under hypoxic conditions (1% oxygen); type: cell-based, human; settings: Homo sapiens; MRC5, hypoxia 1% oxygen, 16 J cm^−2; read-out: EC50 (M) (16 J cm^−2)
MEASURED_ATTRIBUTE: EC50 (M)
The response must be a number in M with no trailing unit.

Query: With MRC5 cells as the test system, provide measured EC50 for this molecule: COc1ccc(C2=[N+]3C(=Nc4c(-c5ccccc5)c(Br)c(-c5ccc(OC)cc5)n4[B-]3(F)F)C(c3ccccc3)=C2Br)cc1
Result: 1.6e-06
